System: rat aortic VSMC
method: Resazurin conversion assay of PDGF-induced VSMC proliferation
Format: cell-based
stated-conditions: Rattus norvegicus, VSMC, 48 h, PDGF-BB 20 ng/mL, 48 h; concentrations 1, 3, 10, 30 µM; read-out: Inhibition of VSMC Proliferation, Resazurin Conversion Assay, IC50
Flag rule - IC50 less than 10 µM flags met; the remaining entries get not met.

{"molecule": "COc1cc(O)c2c(=O)c3cc(O)ccc3oc2c1 [Compound 1, 1,7-dihydroxy-3-methoxyxanthone]", "study-system": "rat aortic VSMC", "category": "met"}
{"molecule": "COc1ccc2oc3cc(O)cc(O)c3c(=O)c2c1 [Compound 2, 1,3-dihydroxy-7-methoxyxanthone]", "study-system": "rat aortic VSMC", "category": "not met"}
{"molecule": "COc1cc(O)c2c(=O)c3c(O)ccc(OC)c3oc2c1 [Compound 6, 1,8-dihydroxy-3,5-dimethoxyxanthone]", "study-system": "rat aortic VSMC", "category": "not met"}
{"molecule": "COc1cc(O)c2c(=O)c3cccc(O)c3oc2c1 [Compound 8, 1,5-dihydroxy-3-methoxyxanthone]", "study-system": "rat aortic VSMC", "category": "not met"}

**Q:** Lab log: compare recorded IC50 with 10 µM; is it strictly lower for COc1c(OC)c(O)c2c(=O)c3cccc(OC)c3oc2c1OC [Compound 4, 1-hydroxy-2,3,4,5-tetramethoxyxanthone] ?
**A:** not met

----------
System: rat aortic VSMC
method: Resazurin conversion assay of PDGF-induced VSMC proliferation
Format: cell-based
stated-conditions: summary rating of the 14 xanthones
property-measured: Anti-proliferative activity in rat aortic VSMC (in words)

{"molecule": "COc1cc(O)c2c(=O)c3cccc(O)c3oc2c1 [Compound 8, 1,5-dihydroxy-3-methoxyxanthone]", "experimental-result": "moderately active"}
{"molecule": "COc1ccc2oc3cc(O)cc(O)c3c(=O)c2c1 [Compound 2, 1,3-dihydroxy-7-methoxyxanthone]", "experimental-result": "moderately active"}
